assayedTarget: KRAS G12D (Homo sapiens, UniProt P01116, G12D)
Sequence (P01116 1-188 isoform P01116-2 G12D): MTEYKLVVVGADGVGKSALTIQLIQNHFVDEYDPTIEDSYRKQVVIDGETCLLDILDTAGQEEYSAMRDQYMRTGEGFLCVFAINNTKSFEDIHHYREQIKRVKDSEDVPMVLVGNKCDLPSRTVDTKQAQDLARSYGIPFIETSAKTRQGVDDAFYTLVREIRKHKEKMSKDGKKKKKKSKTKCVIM
experiment: GDP-GTP exchange assay (KRAS G12D);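 further: one dagger IC50 up to 100 nM and two daggers above 100 nM up to 1 μM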
Assay type: biochemical
runParameters: bodipy-GDP/GppNHp exchange with SOS1; 4 h pre-incubation, 2 h reaction
parameterMeasured: G12D_exchange (KRAS_G12D exchange assay IC50)

>  <compound>
Cc1nc2c(F)c(-c3cccc(Cl)c3Cl)c(CCC#N)cc2c2c1cc([C@H]1[C@H]3C[C@H](CN(c4ccc(C(F)F)nc4)C3)N1C(=O)C1CC1)n2[C@H]1[C@H]2CN[C@@H]1C2 (atropisomer, axis not shown; (Ra))

>  <reportedMeasurement>
†

$$$$
>  <compound>
Cc1nc2c(F)c(-c3cccc(Cl)c3Cl)c(CCC#N)cc2c2c1cc([C@H]1[C@H]3C[C@H](CN(c4ncccc4C#N)C3)N1C(=O)C1CC1)n2[C@H]1[C@H]2CN[C@@H]1C2 (atropisomer, axis not shown; (Ra))

>  <reportedMeasurement>
††

$$$$
>  <compound>
COc1cccnc1N1C[C@@H]2C[C@H](C1)N(C(=O)C1CC1)[C@H]2c1cc2c(C)nc3c(F)c(-c4cccc(Cl)c4Cl)c(CCC#N)cc3c2n1[C@H]1[C@H]2CN[C@@H]1C2 (atropisomer, axis not shown; (Ra))

>  <reportedMeasurement>
†

$$$$
>  <compound>
Cc1nc2c(F)c(-c3cccc(Cl)c3Cl)c(CCC#N)cc2c2c1cc([C@H]1[C@H]3C[C@H](CN(c4cccc(OC(F)F)c4)C3)N1C(=O)C1CC1)n2[C@H]1[C@H]2CN[C@@H]1C2 (atropisomer, axis not shown; (Ra))

>  <reportedMeasurement>
††

$$$$

The measured values listed here are drawn from patent US20250195536A1.
